# Organism: Homo sapiens
# ASSAY PROCEDURE: Leukotriene synthesis inhibition activity in the Human PMN assay
# Type: functional, organism-based
# DETAILS: Homo sapiens
For each entry below, report its pIC50 value.
Numbers only, as −log10 of the molar value.

> print(dat)
                                   compound  obs.value
1  c1ccc(COCC(OCc2ccccc2)c2ccc(OCc3ccc4ccccc4n3)cc2)cc1 (stereo not given)       7.52
2  CC(C)c1ccc2c(c1)c(SC(C)(C)C)c(CC(C)(C)C(=O)O)n2Cc1ccc(Cl)cc1       8.52
3  Cc1c(CC(C)(C)C(=O)O)n(Cc2ccc(Cl)cc2)c2ccc(OCc3ccc4ccccc4n3)cc12       8.52
4  COc1ccc2c(c1)c(C)c(CC(C)(C)C(=O)O)n2Cc1ccc(Cl)cc1       6.06

Entry under review: "CC(C)(C)Sc1c(CC(C)(C)C(=O)O)n(Cc2ccc(Cl)cc2)c2ccc(OCc3ccc4ccccc4n3)cc12" . Reported pIC50?
8.52
